Values were extracted from paper PMC9727064.

system: human Liver-Chip (hepatocyte layer); test: Liver-Chip immunofluorescence imaging (caspase 3/7, TMRM, AdipoRed/LipidTOX); assay type: cell-based; details: day 7 post-drug administration, hepatocyte layer, top channel; donor one
QUANTITY: Immunofluorescent findings, donor one (Supplementary Figure 3)

1) N[C@@H]1[C@H]2CN(c3nc4c(cc3F)c(=O)c(C(=O)O)cn4-c3ccc(F)cc3F)C[C@@H]12 [Trovafloxacin] : Apoptosis
2) CCOC(=O)CN[C@@H](C(=O)N1CC[C@H]1C(=O)NCc1ccc(/C(N)=N\O)cc1)C1CCCCC1 [Ximelagatran] : No findings
3) O=c1[nH]c(=O)n([C@@H]2O[C@H](CO)[C@@H](O)[C@@H]2F)cc1I [FIRU] : No findings
4) CCN(CC)C(=O)/C(C#N)=C/c1cc(O)c(O)c([N+](=O)[O-])c1 [Entacapone] : No findings
5) CC(c1cc2ccccc2s1)N(O)C(N)=O (stereo not shown) [Zileuton] : No findings
6) Cc1c(C)c2c(c(C)c1O)CCC(C)(COc1ccc(CC3SC(=O)NC3=O)cc1)O2 (stereo not shown) [Troglitazone] : Apoptosis
7) O=c1[nH]c(=O)n([C@@H]2O[C@H](CO)[C@@H](O)[C@@H]2F)cc1I [Fialuridine] : No findings

* * *

Tested on: human Liver-Chip (hepatocyte layer)
Test: Liver-Chip immunofluorescence imaging (caspase 3/7, TMRM, AdipoRed/LipidTOX)
Assay type: cell-based
Details: matched pair analysis; donor 3
Method: Chips were detached from pods and washed once with PBS. […] Afterwards, chips were washed with PBS and stored at 4 °C until staining. […] Chips were imaged immediately or stored at 4 °C until ready for imaging on the Opera Phenix. […] The chips were kept at 37 °C, protected from light, until ready for imaging with the Opera Phenix. […] Once ready, the stained chips were covered with transparent plate film to seal channel ports and loaded into the Phenix. […]
QUANTITY: IF imaging Donor 3

1. C[C@H]1COc2c(N3CCN(C)CC3)c(F)cc3c(=O)c(C(=O)O)cn1c23 : No findings
2. Cc1cc2c(s1)Nc1ccccc1N=C2N1CCN(C)CC1 : No findings
3. COC(c1ccccc1)(c1ccccc1)[C@H](Oc1nc(C)cc(C)n1)C(=O)O : No findings

* * *

system: human Liver-Chip (hepatocytes and non-parenchymal cells); conditions: lowest concentration causing an increase in cellular morphology score; donor 2
Recorded Morphology Donor 2, one value per entry.
QUANTITY: Morphology Donor 2

1. O=c1[nH]c(=O)n([C@@H]2O[C@H](CO)[C@@H](O)[C@@H]2F)cc1I : >300 multiples of the unbound human Cmax
2. Cc1ccc(C(=O)c2cc(O)c(O)c([N+](=O)[O-])c2)cc1 : 100 multiples of the unbound human Cmax
3. Cc1cc2c(cc1CC(=O)c1sccc1S(=O)(=O)Nc1onc(C)c1Cl)OCO2 : 100 multiples of the unbound human Cmax
4. Cc1cc2c(s1)Nc1ccccc1N=C2N1CCN(C)CC1 : >300 multiples of the unbound human Cmax

* * *

tested on: human Liver-Chip (hepatocyte layer); assay: Liver-Chip immunofluorescence imaging (caspase 3/7, TMRM, AdipoRed/LipidTOX); type: cell-based; details: day 7 post-drug administration, hepatocyte layer, top channel; donor one
QUANTITY: Immunofluorescent findings, donor one (Supplementary Figure 3)

1. COC(c1ccccc1)(c1ccccc1)[C@H](Oc1nc(C)cc(C)n1)C(=O)O : No findings
2. Cc1cn([C@H]2C=C[C@@H](CO)O2)c(=O)[nH]c1=O : No findings
3. Nc1c2c(nc3ccccc13)CCCC2 : Apoptosis
4. CC[C@H]1OC(=O)[C@H](C)C(=O)[C@H](C)[C@@H](O[C@@H]2O[C@H](C)C[C@H](N(C)C)[C@H]2O)[C@](C)(OC)C[C@@H](C)C(=O)[C@H](C)[C@H]2N(CCCCn3cnc(-c4cccnc4)c3)C(=O)O[C@]12C : Apoptosis
5. O=C(O)Cc1ccccc1Nc1c(Cl)cccc1Cl : Apoptosis
6. CC(CCc1ccccc1)NCC(O)c1ccc(O)c(C(N)=O)c1 (stereo not drawn) : Apoptosis
7. CCc1ccc(CCOc2ccc(CC3SC(=O)NC3=O)cc2)nc1 (stereo not drawn) : Apoptosis
8. Cc1cc2c(s1)Nc1ccccc1N=C2N1CCN(C)CC1 : Apoptosis

* * *

system: human Liver-Chip (hepatocyte layer); assay: Liver-Chip immunofluorescence imaging (caspase 3/7, TMRM, AdipoRed/LipidTOX); type: cell-based; details: day 7 post-drug administration, hepatocyte layer, top channel; donor one
QUANTITY: Immunofluorescent findings, donor one (Supplementary Figure 3)

1. C[C@H]1COc2c(N3CCN(C)CC3)c(F)cc3c(=O)c(C(=O)O)cn1c23 : No findings
2. CCc1nn(CCCN2CCN(c3cccc(Cl)c3)CC2)c(=O)n1CCOc1ccccc1 : No findings
3. O=C(NC1CCN(CCCCC2(C(=O)NCC(F)(F)F)c3ccccc3-c3ccccc32)CC1)c1ccccc1-c1ccc(C(F)(F)F)cc1 [Lomitapide] : No findings

* * *

system: human Liver-Chip (hepatocytes and non-parenchymal cells); conditions: lowest concentration causing an increase in cellular morphology score; donor 1
Recorded Morphology Donor 1, one value per entry.
QUANTITY: Morphology Donor 1

1. Cc1cc2c(cc1CC(=O)c1sccc1S(=O)(=O)Nc1onc(C)c1Cl)OCO2 [Sitaxsentan] : 100 multiples of the unbound human Cmax
2. Cc1cc2c(s1)Nc1ccccc1N=C2N1CCN(C)CC1 [Olanzapine] : >300 multiples of the unbound human Cmax
3. O=c1[nH]c(=O)n([C@@H]2O[C@H](CO)[C@@H](O)[C@@H]2F)cc1I [FIRU] : >300 multiples of the unbound human Cmax
4. COC(c1ccccc1)(c1ccccc1)[C@H](Oc1nc(C)cc(C)n1)C(=O)O [Ambrisentan] : >300 multiples of the unbound human Cmax
5. Cc1ccc(C(=O)c2cc(O)c(O)c([N+](=O)[O-])c2)cc1 [Tolcapone] : 10 multiples of the unbound human Cmax
6. CCN(CC)C(=O)/C(C#N)=C/c1cc(O)c(O)c([N+](=O)[O-])c1 [Entacapone] : >300 multiples of the unbound human Cmax

* * *

system: human Liver-Chip (hepatocyte layer); assay: Liver-Chip immunofluorescence imaging (caspase 3/7, TMRM, AdipoRed/LipidTOX); assay type: cell-based; details: day 7 post-drug administration, hepatocyte layer, top channel; donor two
QUANTITY: Immunofluorescent findings, donor two (Supplementary Figure 3)

1) CCOC(=O)CN[C@@H](C(=O)N1CC[C@H]1C(=O)NCc1ccc(/C(N)=N\O)cc1)C1CCCCC1 [Ximelagatran] : No findings
2) Cc1c(C)c2c(c(C)c1O)CCC(C)(COc1ccc(CC3SC(=O)NC3=O)cc1)O2 (centres unmarked) [Troglitazone] : Apoptosis
3) Cc1ccc(C(=O)c2cc(O)c(O)c([N+](=O)[O-])c2)cc1 [Tolcapone] : Mitotoxicity
4) CC(c1cc2ccccc2s1)N(O)C(N)=O (centres unmarked) [Zileuton] : No findings
5) CCc1ccc(CCOc2ccc(CC3SC(=O)NC3=O)cc2)nc1 (centres unmarked) [Pioglitazone] : No findings
6) CC(CCc1ccccc1)NCC(O)c1ccc(O)c(C(N)=O)c1 (centres unmarked) [Labetalol] : Apoptosis
7) CC(C(=O)O)c1ccc2oc(-c3ccc(Cl)cc3)nc2c1 (centres unmarked) [Benoxaprofen] : Apoptosis
8) Cc1cc2c(cc1CC(=O)c1sccc1S(=O)(=O)Nc1onc(C)c1Cl)OCO2 [Sitaxsentan] : Mitotoxicity
9) N[C@@H]1[C@H]2CN(c3nc4c(cc3F)c(=O)c(C(=O)O)cn4-c3ccc(F)cc3F)C[C@@H]12 [Trovafloxacin] : Apoptosis
10) Cc1cn([C@H]2C=C[C@@H](CO)O2)c(=O)[nH]c1=O [Stavudine] : Mitotoxicity

* * *

test system: human Liver-Chip (hepatocytes and non-parenchymal cells); conditions: human
Recorded Morphology Donor 1, one value per entry.
QUANTITY: Morphology Donor 1

1. O=C(O)Cc1ccccc1Nc1c(Cl)cccc1Cl [Diclofenac] : 1000 unbound human Cmax multiplier
2. CC[C@H]1OC(=O)[C@H](C)C(=O)[C@H](C)[C@@H](O[C@@H]2O[C@H](C)C[C@H](N(C)C)[C@H]2O)[C@](C)(OC)C[C@@H](C)C(=O)[C@H](C)[C@H]2N(CCCCn3cnc(-c4cccnc4)c3)C(=O)O[C@]12C [Telithromycin] : 100 unbound human Cmax multiplier
3. CCc1ccc(CCOc2ccc(CC3SC(=O)NC3=O)cc2)nc1 (stereo not drawn) [Pioglitazone] : >300 multiples of the unbound human Cmax
4. Cc1cn([C@H]2C=C[C@@H](CO)O2)c(=O)[nH]c1=O [Stavudine] : 300 unbound human Cmax multiplier
5. CCOC(=O)CN[C@@H](C(=O)N1CC[C@H]1C(=O)NCc1ccc(/C(N)=N\O)cc1)C1CCCCC1 [Ximelagatran] : 100 unbound human Cmax multiplier
6. Cc1c(C)c2c(c(C)c1O)CCC(C)(COc1ccc(CC3SC(=O)NC3=O)cc1)O2 (stereo not drawn) [Troglitazone] : 300 multiples of the unbound human Cmax
7. CC(c1cc2ccccc2s1)N(O)C(N)=O (stereo not drawn) [Zileuton] : > 100 unbound human Cmax multiplier
8. C=C[C@@H]1C[C@]1(NC(=O)[C@@H]1C[C@@H](Oc2ncc(OC)c3ccc(Cl)cc23)CN1C(=O)[C@@H](NC(=O)OC(C)(C)C)C(C)(C)C)C(=O)NS(=O)(=O)C1CC1 [Asunaprevir] : 1000 unbound human Cmax multiplier
9. CCc1nn(CCCN2CCN(c3cccc(Cl)c3)CC2)c(=O)n1CCOc1ccccc1 [Nefazodone] : 300 multiples of the unbound human Cmax
10. O=c1[nH]c(=O)n([C@@H]2O[C@H](CO)[C@@H](O)[C@@H]2F)cc1I [Fialuridine] : >300 multiples of the unbound human Cmax
11. C[C@H]1COc2c(N3CCN(C)CC3)c(F)cc3c(=O)c(C(=O)O)cn1c23 [Levofloxacin] : >15 multiples of the unbound human Cmax
12. CC(C(=O)O)c1ccc2oc(-c3ccc(Cl)cc3)nc2c1 (stereo not drawn) [Benoxaprofen] : < 0.1 unbound human Cmax multiplier
13. O=C1CC2(CCCC2)CC(=O)N1CCCCN1CCN(c2ncccn2)CC1 [Buspirone] : >300 multiples of the unbound human Cmax
14. CC(CCc1ccccc1)NCC(O)c1ccc(O)c(C(N)=O)c1 (stereo not drawn) [Labetalol] : > 100 unbound human Cmax multiplier
15. N[C@@H]1[C@H]2CN(c3nc4c(cc3F)c(=O)c(C(=O)O)cn4-c3ccc(F)cc3F)C[C@@H]12 [Trovafloxacin] : 100 multiples of the unbound human Cmax
